The origin of these recorded values is patent US20050271643A1.

# Tested on: B. licheniformis PA
# method-description: Antibiogram by disc diffusion method
# Assay type: cell-based, Bacillus licheniformis
# details: 6 mm antibiotic discs, Mueller-Hinton plates, 18 hours at 37° C.; strain B. licheniformis PA
readout-kind: Zone of inhibition

molecule: NC[C@H]1O[C@H](O[C@H]2[C@H](O)[C@@H](O[C@H]3O[C@H](CO)[C@@H](O)[C@H](N)[C@H]3O)[C@H](N)C[C@@H]2N)[C@H](O)[C@@H](O)[C@@H]1O [Kanamycin]
system: B. licheniformis PA
readout-kind: Zone of inhibition
assay-value: 20 ± 0.1 mm
//
molecule: CO[C@@]1(NC(=O)Cc2cccs2)C(=O)N2C(C(=O)O)=C(COC(N)=O)CS[C@@H]21 [Cefoxitin]
system: B. licheniformis PA
readout-kind: Zone of inhibition
assay-value: 12 ± 0.3 mm
//
molecule: CO/N=C(\C(=O)N[C@@H]1C(=O)N2C(C(=O)O)=CCS[C@H]12)c1csc(N)n1 [Ceftizoxim]
system: B. licheniformis PA
readout-kind: Zone of inhibition
assay-value: 0 mm
//
molecule: O=C1CN(/N=C/c2ccc([N+](=O)[O-])o2)C(=O)N1 [Nitrofurantoin]
system: B. licheniformis PA
readout-kind: Zone of inhibition
assay-value: 18 ± 0.1 mm
//
molecule: CCN1CCN(C(=O)N[C@@H](C(=O)N[C@@H]2C(=O)N3[C@@H]2SC(C)(C)[C@@H]3C(=O)O)c2ccccc2)C(=O)C1=O [Piperacillin]
system: B. licheniformis PA
readout-kind: Zone of inhibition
assay-value: 12 ± 0.1 mm
//
molecule: CC1(C)S[C@@H]2[C@H](NC(=O)C(C(=O)O)c3ccccc3)C(=O)N2[C@H]1C(=O)O (stereo partly shown) [Carbenicillin]
system: B. licheniformis PA
readout-kind: Zone of inhibition
assay-value: 18 ± 0.3 mm
//
molecule: O=C(N[C@H](CO)[C@H](O)c1ccc([N+](=O)[O-])cc1)C(Cl)Cl [Chloramphenicol]
system: B. licheniformis PA
readout-kind: Zone of inhibition
assay-value: 10 ± 0.1 mm

====

# System: B. licheniformis PA
# method-description: Antibiogram by disc diffusion method
# Format: cell-based, Bacillus licheniformis
# details: 6 mm antibiotic discs, Mueller-Hinton plates, 18 hours at 37° C.; strain B. licheniformis PA
# Zone of inhibition per record follows

molecule: CO/N=C(\C(=O)N[C@@H]1C(=O)N2C(C(=O)O)=C(COC(N)=O)CS[C@H]12)c1ccco1
Zone of inhibition (mm): 0
//
molecule: CO/N=C(\C(=O)N[C@@H]1C(=O)N2C(C(=O)O)=C(CSc3nc(=O)c(=O)[nH]n3C)CS[C@H]12)c1csc(N)n1
Zone of inhibition (mm): 12
//
molecule: CC1(C)S[C@@H]2[C@H](NC(=O)[C@H](N)c3ccccc3)C(=O)N2[C@H]1C(=O)O
Zone of inhibition (mm): 0
//
molecule: CO[C@@]1(NC(=O)C(C(=O)O)c2ccc(O)cc2)C(=O)N2C(C(=O)O)=C(CSc3nnnn3C)CO[C@@H]21 (stereo partly shown)
Zone of inhibition (mm): 12
//
molecule: CC1(C)S[C@@H]2[C@H](NC(=O)[C@H](N)c3ccc(O)cc3)C(=O)N2[C@H]1C(=O)O
Zone of inhibition (mm): 16
//
molecule: C[C@H]1[C@H](NC(=O)/C(=N\OC(C)(C)C(=O)O)c2csc(N)n2)C(=O)N1S(=O)(=O)O
Zone of inhibition (mm): 0
//
molecule: CCn1cc(C(=O)O)c(=O)c2cc(F)c(N3CCNCC3)cc21
Zone of inhibition (mm): 24
